test system: male SA rats; test: Anticonvulsant activity, maximal electroshock (MES) model, suppression of hind limb tonic extension; type: in vivo; conditions: Rattus norvegicus, 1 h; ip, one hour before seizure testing; >5 or <5 = fewer or more than 50% inhibited in initial screen at 5 mg/kg ip; read-out: Anticonvulsant ED50 (MES), ip
For each record, check the reported ED50: if it is below 3 mg/kg write criterion met, else write criterion not met.

>>> df
                               query_smiles     discrete_label
0  [N-]=[N+]=NC[C@H]1O[C@@H](n2nc(-c3cccs3)c3c(Nc4ccccc4)ncnc32)[C@H](O)[C@@H]1O  criterion not met
1  COc1ccc(Nc2ncnc3c2c(-c2ccccc2)cn3[C@@H]2O[C@H](C)[C@@H](O)[C@H]2O)cc1      criterion met
2  C[C@H]1O[C@@H](n2cc(-c3ccccc3)c3c(Nc4cc(F)cc(F)c4)ncnc32)[C@H](O)[C@@H]1O  criterion not met
3  C[C@H]1O[C@@H](n2cc(-c3ccccc3)c3c(NCc4ccccc4)ncnc32)[C@H](O)[C@@H]1O  criterion not met

Lab note: ED50 threshold 3 mg/kg. Does this compound come in strictly under it? C[C@H]1O[C@@H](n2cc(-c3ccccc3)c3c(Nc4ccc(O)cc4)ncnc32)[C@H](O)[C@@H]1O
criterion not met

Please indicate whether the reported ED50 of OC[C@H]1O[C@@H](n2nc(-c3ccccc3)c3c(Nc4ccccc4)ncnc32)[C@H](O)[C@@H]1O is strictly below 3 mg/kg.
criterion met

Regarding C[C@H]1O[C@@H](n2cc(-c3ccccc3)c3c(Nc4ccc(F)cc4)ncnc32)[C@H](O)[C@@H]1O , kindly confirm whether its ED50 is beneath 3 mg/kg.
criterion met
